Method: Inhibition of NADH oxidase in beef heart sub-mitochondrial particles by UV-spectrophotometric analysis
Set-up: species or system Bos taurus
pIC50: −log10 of the molar value.
Property measured: pIC50

# Compound, Limit qualifier, Numeric value
rows = [
    ("COc1cc2c(cc1OC)C1(C)OC(C)=CC(=O)N1CC2 (configuration not stated)", "=", 5.87),
    ("COc1cc2c(cc1OC)-c1c(-c3ccccc3)c(C)cc(=O)n1CC2", "=", 5.33),
    ("COc1cc2c(cc1OC)-c1cc(-c3ccccc3)cc(=O)n1CC2", "<", 4.52),
    ("C=C(C)[C@H]1Cc2c(ccc3c2O[C@@H]2COc4cc(OC)c(OC)cc4[C@@H]2C3=O)O1", "=", 8.29),
    ("COc1cc2c(cc1OC)C1(Cc3ccccc3)OC(C)=CC(=O)N1CC2 (configuration not stated)", "=", 5.82),
    ("Cc1cc2n(c(=O)c1)CCc1cc(O)c(O)cc1-2", "=", 5.46),
    ("COc1cc2c(cc1OC)C1(C)OC(c3ccccc3)=CC(=O)N1CC2 (configuration not stated)", "=", 5.88),
    ("COc1cc2c(cc1OC)C1(Cc3ccccc3Br)OC(C)=CC(=O)N1CC2 (configuration not stated)", "=", 5.86),
    ("COc1cc2c(cc1OC)C1(C)OC(c3ccco3)=CC(=O)N1CC2 (configuration not stated)", "=", 6.05),
    ("COc1cc2c(cc1OC)-c1cc(-c3ccco3)cc(=O)n1CC2", "=", 4.90),
    ("COc1cc2c(cc1OC)-c1c(-c3ccccc3Br)c(C)cc(=O)n1CC2", "=", 5.37),
    ("COc1cc2c(cc1OC)-c1cc(C)cc(=O)n1CC2", "=", 5.08),
]

---

Method: Inhibition of NADH oxidase in beef heart sub-mitochondrial particles after 5 mins
Design: species or system Bos taurus
A collection of compounds and their measured IC50

# Structure notation, IC50, nM
measured = [
    ("COc1ccc2nc3n(c(=O)c2c1)-c1ccccc1C(=O)N1CCC[C@@H]31", 1500),
    ("CC(C)Cc1cnc(CC(C)C)c(=O)[nH]1", 13000),
    ("COc1cc(O)c2nc3n(c(=O)c2c1)-c1ccccc1C(=O)N1CCC[C@@H]31", 2500),
]
